Reported melting point values for a set of compounds

Study these solved cases before continuing.
CC(C#N)(COc1cc(C#N)ccc1C(F)(F)F)NC(=O)c1ccc(SC(F)(F)F)cc1 (stereo not given)	126 to 127 °C
COCCNc1nc2ccccc2n(-c2ccc(Cl)cc2)c1=O	151 to 152 °C
CC(C)c1cc(C(C)C)c(NC(=O)CN2CCN(CCSc3nc4ccccc4o3)CC2)c(C(C)C)c1	160 to 163 °C
COc1ccc(/C=C(\C#N)c2ccccc2F)cc1OC1CCCC1	70 to 73 °C

Kindly consider the entry below.
Problem: Entry CCCc1nc(C)n2nc(S(=O)(=O)N(C)C)nc2c1Cc1ccc(-c2ccccc2C#N)cc1 has what melting point?
Solution: 158 °C

* * *

Measured melting point, listed per entry for reference.

Solved entries (count: 3):
C=C(Br)CN1Cc2cccc3[nH]c(=O)n(c23)CC1C (centres undefined)	150 °C
COc1ccc(-c2cc3ccccc3[nH]2)cc1NC(N)=S	188 to 191 °C
CCCCCCCCCCCCCCCCCCOc1cc(OCCCOc2ccccc2)cc(C(=O)N(CC(=O)O)CC(=O)O)c1	86 to 90 °C

Problem: Which melting point value belongs to CCCC(C)SC1NN=C(c2ccncc2)N1c1ccccc1 (centres undefined) ?
Solution: 96 to 97 °C

Problem: Also CC(C)(C)C(=O)C(C(Cl)C(Cl)(Cl)Cl)n1cncn1 (centres undefined) ?
Solution: 111 to 113 °C

* * *

The following compounds are shown together with reported melting point values.

Before answering, review these 3 worked examples.
CC(=O)OC1CCC2(C)C(=CCC3C2CCC2(C)C(n4cnc5ccccc54)=CCC32)C1 (centres undefined)	159 to 160 °C
N#Cc1c(Cl)sc2[nH]c(=O)c(=O)[nH]c12	> 250 °C
CCCOc1ccc(SC(C)(C)C)cc1C(N)=O	136 to 138 °C

Turning to the following compound.
Problem: Look at this compound and give its reported melting point. O=C(C#CCN1C(=O)c2ccccc2C1=O)Nc1nnc(SCc2ccccc2)s1
Solution: 128 to 131 °C

* * *

Outcome Measure: melting point

Check out these entries, answers already filled in.
CN(C)Cc1ccc(SC2CCN(C(=O)OCc3ccccc3)CC2)cc1	144 °C
Cc1nc(C(=O)Nc2ccc3[nH]cc(C4CCN(C)CC4)c3n2)c(C)s1	125 to 126 °C
CC(=O)c1sc(-c2ccncc2)c(-c2ccncc2)c1C	140 to 142 °C
CN1CCCC1CCOc1ccccc1CCc1cccc(C#N)c1 (stereo unspecified)	101 to 102 °C
COc1cn(C)c(=O)c(OS(=O)(=O)C(F)(F)F)n1	107 to 108 °C
COc1ccc(-c2cc(-c3sc(N)nc3-c3cccc(C)n3)ccn2)cc1	188 to 190 °C
COc1ccc2c(c1)CCn1c-2ncc(C(=O)O)c1=O	232 to 234 °C
C=C(C)COc1ccc2c(C)cc(=O)oc2c1C(=O)C=Cc1cccnc1	110 to 112 °C
NC(=O)C1=CCCc2cc(Sc3ccccc3)cc(F)c21	224 to 226 °C
CCCCNC(=O)NC(Cc1ccccc1)C(=O)Nc1c(F)cc(F)cc1F (stereo unspecified)	217 to 218 °C

Problem: What does the record list as melting point for Cc1c(NC(=O)C(CSC(=O)c2ccccc2)Cc2ccccc2)cccc1C(=O)O (stereo unspecified) ?
Solution: 204 to 205 °C

Problem: Subsequent entry: COc1ccc(C(=O)OC2CCCC2)nc1Cl
Solution: 90 to 92 °C
